The origin of these recorded values is patent US11413264B2.

- TARGET_OR_TEST_SYSTEM: alpha2C adrenergic receptor (Alpha2C) (Homo sapiens, UniProt P18825)
- Construct: expressed in transfected cells; host or cells: CHO cells (membrane fractions)
- Sequence (P18825 1-462): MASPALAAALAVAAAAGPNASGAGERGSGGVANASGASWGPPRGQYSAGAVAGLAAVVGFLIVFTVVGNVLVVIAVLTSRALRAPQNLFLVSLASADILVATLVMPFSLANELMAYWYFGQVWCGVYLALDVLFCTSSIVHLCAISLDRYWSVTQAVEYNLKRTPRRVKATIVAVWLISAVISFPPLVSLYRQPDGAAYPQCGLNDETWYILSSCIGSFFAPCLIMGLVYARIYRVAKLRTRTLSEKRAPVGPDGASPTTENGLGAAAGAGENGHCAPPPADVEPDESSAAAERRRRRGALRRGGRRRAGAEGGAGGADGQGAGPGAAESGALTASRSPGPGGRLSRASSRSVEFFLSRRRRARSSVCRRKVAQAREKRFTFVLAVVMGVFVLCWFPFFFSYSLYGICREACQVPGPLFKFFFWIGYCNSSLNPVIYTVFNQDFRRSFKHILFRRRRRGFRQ
- PROTOCOL: Competitive radioligand binding assay, α2C (antagonist radioligand)
- TEST_CONDITIONS: compound at 10 μM, 1st individual result, read-out: % inhibition of control specific binding, 1st
Counter-ions that a name gives are not always drawn.
RECORDED_METRIC: inhibition at 10 µM (%)
Kindly provide the numeric value in % only, without the unit symbol.

| COMPOUND | TARGET_OR_TEST_SYSTEM | inhibition at 10 µM (%) |
| --- | --- | --- |
| NC(=O)SC[C@H](N)Cc1ccccc1 [Compound 10, hydrochloride] | alpha2C adrenergic receptor (Alpha2C) (Homo sapiens, UniProt P18825) | 89.3 |
| NC(=O)OC[C@H](N)Cc1ccccc1 [APC, (R)-2-amino-3-phenylpropyl carbamate, reference compound] | alpha2C adrenergic receptor (Alpha2C) (Homo sapiens, UniProt P18825) | 4.1 |
| NC(=S)OC[C@H](N)Cc1ccccc1 [Compound 8, dihydrochloride] | alpha2C adrenergic receptor (Alpha2C) (Homo sapiens, UniProt P18825) | 50.6 |
| NC(=O)CC[C@H](N)Cc1ccccc1 [Compound 4, hydrochloride] | alpha2C adrenergic receptor (Alpha2C) (Homo sapiens, UniProt P18825) | 3.4 |
| N[C@@H](COS(N)(=O)=O)Cc1ccccc1 [Compound 9, hydrochloride] | alpha2C adrenergic receptor (Alpha2C) (Homo sapiens, UniProt P18825) | 65.8 |

Please find the next compound below.
Inquiry: State measured inhibition at 10 µM of the compound NC(=O)NC[C@H](N)Cc1ccccc1 [Compound 3, hydrochloride] with alpha2C adrenergic receptor (Alpha2C) (Homo sapiens, UniProt P18825).
Reply text: 8.6

* * *

- TARGET_OR_TEST_SYSTEM: alpha2A adrenergic receptor (Alpha2A) (Homo sapiens, UniProt P08913)
- Construct: expressed in transfected cells; host or cells: CHO cells (membrane fractions)
- Sequence (P08913 whole entry): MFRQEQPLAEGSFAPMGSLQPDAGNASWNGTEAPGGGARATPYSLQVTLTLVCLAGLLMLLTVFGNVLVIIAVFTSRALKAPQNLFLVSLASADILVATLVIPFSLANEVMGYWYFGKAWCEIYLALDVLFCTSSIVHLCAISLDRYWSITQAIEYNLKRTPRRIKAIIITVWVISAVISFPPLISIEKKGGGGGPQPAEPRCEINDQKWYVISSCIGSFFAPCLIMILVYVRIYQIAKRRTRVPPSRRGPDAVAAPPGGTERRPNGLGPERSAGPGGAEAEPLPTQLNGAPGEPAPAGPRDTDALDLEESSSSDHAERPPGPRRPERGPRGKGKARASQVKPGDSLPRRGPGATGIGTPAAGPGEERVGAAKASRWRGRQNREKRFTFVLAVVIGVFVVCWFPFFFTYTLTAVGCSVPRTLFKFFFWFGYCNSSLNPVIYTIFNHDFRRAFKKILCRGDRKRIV
- PROTOCOL: Competitive radioligand binding assay, α2A (antagonist radioligand)
- TEST_CONDITIONS: compound at 10 μM, 1st individual result, read-out: % inhibition of control specific binding, 1st
Where a name gives a salt, the structure may show the parent alone.
RECORDED_METRIC: inhibition at 10 µM (%)
Kindly provide the numeric value in % only, without the unit symbol.

| COMPOUND | inhibition at 10 µM [%] |
| --- | --- |
| NC(=O)NC[C@H](N)Cc1ccccc1 [Compound 3, hydrochloride] | 1.7 |

Inquiry: Please report the measured inhibition at 10 µM for N[C@@H](COS(N)(=O)=O)Cc1ccccc1 [Compound 9, hydrochloride]
Reply text: 65.7

Inquiry: Please report the measured inhibition at 10 µM for NC(=S)OC[C@H](N)Cc1ccccc1 [Compound 8, dihydrochloride]
Reply text: 60

Inquiry: Please report the measured inhibition at 10 µM for NC(=O)CC[C@H](N)Cc1ccccc1 [Compound 4, hydrochloride]
Reply text: 7.8

Inquiry: Please report the measured inhibition at 10 µM for NC(=O)SC[C@H](N)Cc1ccccc1 [Compound 10, hydrochloride]
Reply text: 64.4

Inquiry: Please report the measured inhibition at 10 µM for NC(=O)OC[C@H](N)Cc1ccccc1 [APC, (R)-2-amino-3-phenylpropyl carbamate, reference compound]
Reply text: 5.2
